- experiment: Non-competitive allosteric inhibition of PTP1B (unknown origin) transformed in Escherichia coli BL21
- Parameters: species or system Homo sapiens
quantity.kind: pKi
Remember, pKi is on a log scale: it is -log10 of the molar concentration.

Form field pKi, entry CN(C)CCSSCC(=O)Nc1cc(-c2ccc(F)cc2F)ccc1O : 5.15
